Each entry below carries its recorded Percent Effect.
target_system: Sialic acid-binding Ig-like lectin 9 (Homo sapiens)
measurement_notes: Hs-Siglec9 ALPHAscreen SOP 20170721
Design: scale not given: direction of the effect not stated beside the values
run_parameters: 10 µM
readout_name: Percent Effect (%)

molecule="CC(C)(CNC(=O)OC(C)(C)C)NC(=O)C1CC(=O)N(C2CC2)C1 (stereo unspecified)" target_system="Sialic acid-binding Ig-like lectin 9 (Homo sapiens)" readout_name="Percent Effect" measured_result=-8.17
molecule="CC(c1ccco1)N(C)Cc1nc2c(cnn2C)c(=O)[nH]1 (stereo unspecified)" target_system="Sialic acid-binding Ig-like lectin 9 (Homo sapiens)" readout_name="Percent Effect" measured_result=5.24
molecule=COCc1cc(NCCc2ccc(F)cc2)n2nccc2n1 target_system="Sialic acid-binding Ig-like lectin 9 (Homo sapiens)" readout_name="Percent Effect" measured_result=-6.47
molecule="Cc1cnn(C2CCCN(C(=O)CCCNc3ncccn3)C2)c1 (stereo unspecified)" target_system="Sialic acid-binding Ig-like lectin 9 (Homo sapiens)" readout_name="Percent Effect" measured_result=-6.78
molecule="O=C(Cn1cccnc1=O)NC(Cc1cccs1)c1ccccn1 (stereo unspecified)" target_system="Sialic acid-binding Ig-like lectin 9 (Homo sapiens)" readout_name="Percent Effect" measured_result=0.0436
molecule=CCn1cc(CN2CCCn3nc(CCC(=O)NCCO)cc3C2)cn1 target_system="Sialic acid-binding Ig-like lectin 9 (Homo sapiens)" readout_name="Percent Effect" measured_result=4.51
molecule=CC(C)c1nnc2n1CCN(CCCS(=O)(=O)c1ccccc1)C2 target_system="Sialic acid-binding Ig-like lectin 9 (Homo sapiens)" readout_name="Percent Effect" measured_result=7.26
molecule="COc1ccc(CNC(C)c2cccc(Cl)c2)c(OC)c1OC (stereo unspecified)" target_system="Sialic acid-binding Ig-like lectin 9 (Homo sapiens)" readout_name="Percent Effect" measured_result=5.99
molecule=COc1ccccc1CC(=O)N1CCC(NCc2c[nH]nc2C)CC1 target_system="Sialic acid-binding Ig-like lectin 9 (Homo sapiens)" readout_name="Percent Effect" measured_result=-8.2
molecule=CC(=O)N1C[C@H](NC(=O)c2cscn2)[C@@H]2OCCC[C@@H]21 target_system="Sialic acid-binding Ig-like lectin 9 (Homo sapiens)" readout_name="Percent Effect" measured_result=-9.14
molecule=Cn1ccnc1SCc1nc(C(C)(C)NC(=O)OC(C)(C)C)no1 target_system="Sialic acid-binding Ig-like lectin 9 (Homo sapiens)" readout_name="Percent Effect" measured_result=21.2

Sourced from ChEMBL document CHEMBL3988442
